These entries and their values trace back to PubChem BioAssay (NCATS).

Tested on: CP211
Run description: qHTS profiling for inhibitors of Plasmodium falciparum proliferation (AID 504749); further: nearly all actives have a fitted effect of over 60% in size
Condition set: P. falciparum in erythrocytes, SYBR Green DNA, 72 h; series mostly up to 28.7 µM
Inconclusive results are not listed. Calls of active or inactive are those of the source. The call rests on the fitted dose curve; in most records, active means well fitted inhibition curve with a large enough effect; inconclusive means small, poorly fitted or top-dose-only effect; inactive means flat fitted curve, though single readings scatter.
Please state which outcome applies, choosing from active, inactive

The following compounds have reported results that may help.
# Compound, Study target, Group label
rows = [
    ("CCC(C)(Oc1ccc(C2(c3ccc(OC(C)(CC)C(=O)O)cc3)CCCCC2)cc1)C(=O)O (stereo not drawn)", "CP211", "inactive"),
    ("Clc1ccc(C(Cn2ccnc2)OCc2ccsc2Cl)c(Cl)c1 (stereo not drawn)", "CP211", "active"),
    ("Cc1nc2n(c(=O)c1CCN1CCC(c3noc4cc(F)ccc34)CC1)CCCC2", "CP211", "inactive"),
    ("CNC[C@@H](O)[C@@H](O)[C@H](O)[C@H](O)CO", "CP211", "inactive"),
    ("CS(=O)(=O)OCCCCOS(C)(=O)=O", "CP211", "inactive"),
    ("Cc1ccc(C)c(OCCCC(C)(C)C(=O)O)c1", "CP211", "inactive"),
    ("O=C(O)c1cccc(-c2noc(-c3ccccc3F)n2)c1", "CP211", "inactive"),
]

With those in mind, consider the next compound.
Dear colleague, could you share the recorded outcome for O=C(NC(Cc1cc(=O)[nH]c2ccccc12)C(=O)O)c1ccc(Cl)cc1 (stereo not drawn) when you have a moment? inactive

---

System: CP262
Run description: qHTS profiling for inhibitors of Plasmodium falciparum proliferation (AID 504749); further: nearly all actives have a fitted effect of over 60% in size
Condition set: P. falciparum in erythrocytes, SYBR Green DNA, 72 h; series mostly up to 28.7 µM
Inconclusive results are not listed. Activity calls are given as the source filed them. Calls come from the whole dose curve; as a rule, active = well fitted inhibition curve with a large enough effect; inconclusive = small, poorly fitted or top-dose-only effect; inactive = flat fitted curve, though single readings scatter.
Output constraint: value belongs to 1.0 = active, 0.0 = inactive

Below are worked cases with known answers.
# Compound, Group label
measured = [
    ("CN(C)c1ccc2nc3ccc(=[N+](C)C)cc-3sc2c1", 1.0),
    ("O=P(O)(O)C(O)(Cn1ccnc1)P(=O)(O)O", 0.0),
    ("CNC[C@@H](O)[C@@H](O)[C@H](O)[C@H](O)CO", 0.0),
    ("CC(C)[C@H](N)C(=O)OCCOCn1cnc2c(=O)[nH]c(N)nc21", 0.0),
    ("CCCCN(CCCC)CCC(O)c1cc2c(Cl)cc(Cl)cc2c2cc(C(F)(F)F)ccc12 (stereo unspecified)", 1.0),
]

From here, focus on the item given below.
I would be grateful if you could indicate the recorded call for CC(C)c1ccc2oc3nc(N)c(C(=O)O)cc3c(=O)c2c1 . 0.0

---

Study target: Glutathione peroxidase 1 (Homo sapiens)
Run description: Primary qHTS Assay for Inhibitors of Recombinant Selenoprotein Glutathione Peroxidase 1 (GPX1) (AID 1845191); further: nearly all actives have a fitted effect of over 65% in size
Condition set: recombinant GPX1, GR-coupled NADPH fluorescence, 15 min; series mostly up to 48.8 µM
Records with an inconclusive call do not appear. Activity calls are given as the source filed them. Calls come from the whole dose curve; as a rule, active = well fitted inhibition curve with a large enough effect; inconclusive = small, poorly fitted or top-dose-only effect; inactive = flat fitted curve, though single readings scatter.
Select the correct class. Options are active, inactive and nothing else.

Answered examples (5):
# Compound, Group label
data = [
    ("Clc1ccc2c(N3CCN(CCCN4CCN(c5ccnc6cc(Cl)ccc56)CC4)CC3)ccnc2c1", "inactive"),
    ("Cc1nc2n(c(=O)c1CCN1CCC(c3noc4cc(F)ccc34)CC1)CCCC2", "inactive"),
    ("CC(S)C(=O)NCC(=O)O (stereo unspecified)", "inactive"),
    ("Cc1cc(Cl)ccc1OCCCC(=O)NO", "inactive"),
    ("CC(=O)O[C@H]1C(=O)[C@@]2(C)C([C@H](OC(=O)c3ccccc3)[C@]3(O)C[C@H](OC(=O)[C@H](O)[C@@H](NC(=O)c4ccccc4)c4ccccc4)C(C)=C1C3(C)C)[C@]1(OC(C)=O)CO[C@@H]1C[C@@H]2O (stereo partly specified)", "inactive"),
]

Short answer needed: outcome of this test for O=C(c1ccccc1)c1ccc2n1CCC2C(=O)O (stereo unspecified) ? inactive

For Cn1c(NCCN(CCO)CCCc2ccc([N+](=O)[O-])cc2)cc(=O)n(C)c1=O then? inactive

---

# max response values compiled below
Test system: KB-3-1
Run description: Cytotoxic Profiling of Annotated Libraries Using Quantitative High-Throughput Screening (AID 1296008); further: on the % scale 0 is the no-effect control and ±100 the full control effect; nearly all actives have a fitted effect of over 60% in size
Condition set: Five cell lines viability, CellTiter-Glo ATP luminescence, 48-72 h; hits give low values
Results filed as inconclusive are left out.
Give just the numeric value; % need not be written.

# Compound, max response (%)
rows = [
    ("NCCCCNCCCN", 1.33),
]

Which value of max response has been reported for CNC[C@@H](O)[C@@H](O)[C@H](O)[C@H](O)CO in the records? 5.74

Now this one: O=C(CS(=O)Cc1ccco1)NCC=CCOc1cc(CN2CCCCC2)ccn1 (stereo not drawn) 2.68

---

Run description: qHTS profiling for inhibitors of Plasmodium falciparum proliferation (AID 504749); further: nearly all actives have a fitted effect of over 60% in size;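 on activity, negative = inhibition: 0% = DMSO vehicle and full inhibition = artemisinin control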
Condition set: P. falciparum in erythrocytes, SYBR Green DNA, 72 h; at 12.8 µM (top of the series); parasite line A
Results filed as inconclusive are left out.
Recorded metric: activity, negative = inhibition (%)
Provide only the numeric value, understood in %.

Worked examples, 2 compounds total:
# Item smiles, activity, negative = inhibition / %
data = [
    ("CCCCc1ccc2nc(NC(=O)OC)[nH]c2c1", 2.35),
    ("CN1C(C(=O)Nc2ccccn2)=C(O)c2sccc2S1(=O)=O", -2.2),
]

Which activity, negative = inhibition is listed for COc1ccc2cc([C@H](C)C(=O)O)ccc2c1 ? 6.49

Queued: CCOc1cc(CC(=O)N[C@@H](CC(C)C)c2ccccc2N2CCCCC2)ccc1C(=O)O 4.74

What do you get for Oc1ccc(OCc2ccccc2)cc1 ? -21.7

And then COc1cc(OC)c(C(=O)CCCN2CCCC2)c(OC)c1 , what is it? 17.5

---

Run description: qHTS of pediatric cancer cell lines to identify multiple opportunities for drug repurposing: Primary screen for A673 cells (AID 1347092); further: nearly all actives have a fitted effect of over 45% in size
Condition set: A673 Ewing sarcoma viability, CellTiter-Glo ATP luminescence, 48 h; series mostly up to 46 µM
Results filed as inconclusive are left out. The source made the active and inactive calls. The call rests on the fitted dose curve; in most records, active means well fitted cell-killing curve with a large enough effect; inconclusive means small, poorly fitted or top-dose-only effect; inactive means no such curve, though single readings can be large or run the other way.
Bench note: report the call from Y (active), N (inactive)

Could you kindly confirm the outcome this assay logged for Nc1nc(Cl)nc2c1ncn2[C@H]1C[C@H](O)[C@@H](CO)O1 ? Y

Try this compound next: CN(C)CCc1c[nH]c2ccc(Cn3cncn3)cc12 N

Moving on to the next compound: O=C(NCCO[N+](=O)[O-])c1cccnc1 N

Then CCCS(=O)c1ccc2nc(NC(=O)OC)[nH]c2c1 (configuration not stated) ? Y

Again, but for O=C1c2ccccc2-c2n[nH]c3cccc1c23 Y

Cn1c(NCCN(CCO)CCCc2ccc([N+](=O)[O-])cc2)cc(=O)n(C)c1=O ? N

# iterate: Cc1cccc(CN2CCN(C(c3ccccc3)c3ccc(Cl)cc3)CC2)c1 (configuration not stated) Y

---

Run description: Quantitative High-Throughput drug screen in 47 multiple myeloma cell lines against the NCATS MIPE library collection: ARD_JJKsccE7 cell viability assay (AID 1918929;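 further: 100% = DMSO-only wells and 0% = media-only wells without cells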)
Condition set: ARD myeloma cell line viability, CellTiter-Glo, 48 h; series mostly up to 45.8 µM
Records with an inconclusive call do not appear. Calls of active or inactive are those of the source. Calls follow the shape of the dose curve; as a rule, active = well fitted cell-killing curve with a large enough effect; inconclusive = small, poorly fitted or top-dose-only effect, or effect the other way; inactive = no such curve, though single readings can be large or run the other way.
Could you please pick one outcome from this set? Y for active, N for inactive

Examples from the recorded data:
# Molecule, Group label
records = [
    ("C[C@H](Cn1cnc2c(N)ncnc21)OCP(=O)(O)O", "N"),
    ("CCC1=C(C)CN(C(=O)NCCc2ccc(S(=O)(=O)NC(=O)NC3CCC(C)CC3)cc2)C1=O (configuration not stated)", "N"),
    ("CCC[C@@H]1C[C@@H](C(=O)N[C@@H]([C@H]2O[C@H](SC)[C@H](O)[C@@H](O)[C@H]2O)[C@@H](C)O)N(C)C1", "N"),
    ("Clc1ccc2c(N3CCN(CCCN4CCN(c5ccnc6cc(Cl)ccc56)CC4)CC3)ccnc2c1", "N"),
    ("Cc1cc(=O)oc2cc(O)ccc12", "N"),
]

Now examine the next entry.
Hey, what did the test say about CCOC(=O)c1c(C)n(C)c2ccc(O)cc12 ? N

---

Run description: Quantitative High-Throughput drug screen in 47 multiple myeloma cell lines against the NCATS MIPE library collection: OPM2_DSMZ cell viability assay (AID 1919872); further: nearly all actives have a fitted effect of over 30% in size
Condition set: OPM2 myeloma viability, CellTiter-Glo ATP luminescence, 48 h; series mostly up to 45.8 µM
Results filed as inconclusive are left out. The source made the active and inactive calls. Calls follow the shape of the dose curve; as a rule, active = well fitted cell-killing curve with a large enough effect; inconclusive = small, poorly fitted or top-dose-only effect, or effect the other way; inactive = no such curve, though single readings can be large or run the other way.
Answer with one of the outcomes given here: active, inactive

# Molecule, Group label
records = [
    ("Cc1ncc([N+](=O)[O-])n1CC(C)O (stereo unspecified)", "inactive"),
    ("C[Se]CCC(N)C(=O)O (stereo unspecified)", "inactive"),
    ("C[C@@H](c1ncncc1F)[C@](O)(Cn1cncn1)c1ccc(F)cc1F", "inactive"),
    ("Cc1cc(=O)c2c(O)c3c(O)cc(=O)c4c3c3c(cc(O)c1c23)C(C)(C)C=4O", "active"),
    ("N[C@@H](Cc1cc(I)c(Oc2cc(I)c(O)c(I)c2)c(I)c1)C(=O)O", "inactive"),
]

Hi team, can someone confirm the assay call for NS(=O)(=O)c1cc(C(=O)O)c(NCc2ccco2)cc1Cl ? inactive

Subsequent entry: Clc1ccc2c(N3CCN(CCCN4CCN(c5ccnc6cc(Cl)ccc56)CC4)CC3)ccnc2c1 inactive
